- test_details: yeast display, Sf9 membrane polyspecificity reagent, FACS + sequencing; frameworks hold sequencing errors
result_type: polyreactivity (PSR sort gate)

QVQLVESGGGLVQAGGSLRLSCAASGSIFRRYAMGWYRQAPGKERELVAAISFSGGSTYYADSVKGRFTISRDNAKNTVYLQMNSLKPEDTAVYYCAARSYAYSGDYWGQGTQVNVSS; high polyreactivity
QVQLVESGGGLVQAGGSLRLSCAASGRIFAGYAMGWYRQAPGKERELLATISSGGSTYFAHSVKGRFTISRDNAKNTVYLQMNSLKPEDTAVYYCSAEYGTRQYSCYYKLFNYWGQGTQVTVSS; low polyreactivity
QVQLVESGGGLVQAGGSLRLSCAASGFIFYYNAMGWYRQAPGKERELVAAISTDGGSTYYADSVKGRFTISRDNAKNTVYLQMNSLNPEDTAVYYCAAKRYKRYDYWGQGTQVTVSS; low polyreactivity
QVQLVESVGGLVQAGGSLRLICAASGSTFTWYAIGWNRQAPGKERELVADITWRDGSTYYADSVKGRFTISRDNAKNTVYLQMNSLKPEDTAVYYCAADYTYWGIFFGYWGQGTQVTVSS; high polyreactivity
QVQLVESGGGLVQAGGSLRLSCAASGIIFRYAMGWYRQSPGKERELVARITVGSTYYADSVKGRFTISRDNAKNTVYLQMNSLKPEDTAVYYCNKDSGEDDRWPYDYWGQGTQVTVSS; low polyreactivity
QVQLVESGGGLVQAGGSLRLSCAASGRTFGLNAMGWYRQAPGKERELVAAIDWRGVNTYYADSVKGRFTISRDNAKNTVYLQMNSLKPEDTAVYYCNARAYGRYYWGQGTQVTVSS; high polyreactivity

QUERY: Consider the sequence QVQLVESGGGLVQAGGSLRLSCAASGSTLSYYAMGWYRQAPGKERELVAAISFSGGITYYADSVKGRFTISRDNAKNTVYLQMNSLKPEDTAVYYIKAEYKVYRAYVIWYDYWGQGTQVTVSS and give its measured polyreactivity (PSR sort gate).
RESULT: high polyreactivity

QUERY: Consider the sequence QVQLVESGGGLVQAGGSLRLSCAASGFIFTNYAIGWYRQAPGKVRELVATISSGGGSTYYADSVKGRFTISRDNAKNTVYLQMNSLKQEDTAVYYCAASRRITGIRYINRYEYWGQGTQVTVSS and give its measured polyreactivity (PSR sort gate).
RESULT: high polyreactivity

QUERY: Consider the sequence QVQLVESGGGLVQAGGSLRLSCAASGSIFSKYAMGWYRQAAGKERELVAGISCSGGSTYYADSVNGRFTISRDNAQITVYLQINSLKPEDTAVYYCAVGIPYRGRQGYYGYYSYDYWGQGTHVTVSS and give its measured polyreactivity (PSR sort gate).
RESULT: high polyreactivity

* * *

- test_details: yeast display, Sf9 membrane polyspecificity reagent, FACS + sequencing; frameworks hold sequencing errors
result_type: polyreactivity (PSR sort gate)

QVQLVESGGGLVQAGGSLRLSCAASGGTIAFNGMGWYRQAPGKERELVAAITWRSGSTYYADSVKGRFTISRDNAKNTVYLQMNSLKPEDTAVYYCAARLYRYTPFDYWGQGTQVTVSS; high polyreactivity
QVQLVESGGGLVQAGGSLRLSCAASGITFSHYAMGWYRQAPGKEREFVAAIRYSGGRTYYADSVKGRFTISRDNAKNTVYLQMNSLKPEDTAVYYCAAVVPDRYWGQGTQVTVSS; high polyreactivity
QVQHVESGGGLVQAGGSLRLSCAASGSTFRYYAMGWYRQAPGKERELVAAITSSGTSTYYADSVKGRFTISRDNAKNTVYLQMNSLKPEDTAVYSCAAPPVYKWVSSRYDYWGQGTQVTVSS; low polyreactivity
QVQLVESGGGLVQAGGSLRLICAASGGIFGINAMGWYRPSPVKERELVAAINLSGGRTYYADSVKGRFTISRDNAKKTVYLLMNSLKPEDSAVYYCAAYYGYSLYGHYEYWGQGTQVTVSS; high polyreactivity
QVQLVESGGGLVQAGGSLRLSCAASGSIFAVYAMGWYRQAPGKERVLVAASSTDYADSVKGRFTISRDNAKNTVYLQMNSLKTEDTAVYYCAKVGFGIPGGFYYWGQGTQVTVSS; low polyreactivity
QVQLVESGGGLVQAGGSLRLSCAASGSIFKKYAMVWYRQAPGKERELVAAITRGTYYADSVKGRFTISRDNAKNTVYLQMNSLKPEDTAVYFCNREYWGRGYYRVRGEYDYWGQGTQVTVSS; low polyreactivity
QVQLVESGGGLVQAGGSLRLSCAASGNMFGYYAMGWYRQAPGKERELVARITSGGTTNYADSVKGRFTISRDNAKNTVYLQMNRLKPEDTAVYYCNKDWRRYWLRGDYWGQGTQVTVSS; low polyreactivity
QVQLVESAGGLVQAGGSLRIICAASGRIFSVNSMGGYRQAPGKERELDATIRTDGTTNYADSVKGRFTISRDNAKNTVYLQMNSLQPGDPAVYYCNARIPYSWRYGYWGQGTQVTVSS; high polyreactivity

QUERY: Consider the sequence QVQLVESGGGLVQAGGSLRLSCAASGSTFETNAMGWYRQAPGTERELVAAIRWSTGNTYYADSVKGRFTISRDNAKNTVYLQMNSLKPEDTAVYYCAAYKGKHYNEGYWGQGTQVTVSS and give its measured polyreactivity (PSR sort gate).
RESULT: low polyreactivity

QUERY: Consider the sequence QDQLVESGGGLVQAGGSLRLICAASGGIFLVYTMGWYRQAPGKERELVAAITSGGSTKYADSVKGRFTISRDNAKNTVYLQMNSLKPEDTAVYYCAAYRRSWRYPSVRYYKYDYWGQGTQVTVSS and give its measured polyreactivity (PSR sort gate).
RESULT: high polyreactivity
